Data provenance is paper PMC10786891.

- Assayed System: T1, EsCas13d, nuclease-dead (Eubacterium siraeum, UniProt B0MS50, R295A;H300A;R849A;H854A)
- T1 sequence: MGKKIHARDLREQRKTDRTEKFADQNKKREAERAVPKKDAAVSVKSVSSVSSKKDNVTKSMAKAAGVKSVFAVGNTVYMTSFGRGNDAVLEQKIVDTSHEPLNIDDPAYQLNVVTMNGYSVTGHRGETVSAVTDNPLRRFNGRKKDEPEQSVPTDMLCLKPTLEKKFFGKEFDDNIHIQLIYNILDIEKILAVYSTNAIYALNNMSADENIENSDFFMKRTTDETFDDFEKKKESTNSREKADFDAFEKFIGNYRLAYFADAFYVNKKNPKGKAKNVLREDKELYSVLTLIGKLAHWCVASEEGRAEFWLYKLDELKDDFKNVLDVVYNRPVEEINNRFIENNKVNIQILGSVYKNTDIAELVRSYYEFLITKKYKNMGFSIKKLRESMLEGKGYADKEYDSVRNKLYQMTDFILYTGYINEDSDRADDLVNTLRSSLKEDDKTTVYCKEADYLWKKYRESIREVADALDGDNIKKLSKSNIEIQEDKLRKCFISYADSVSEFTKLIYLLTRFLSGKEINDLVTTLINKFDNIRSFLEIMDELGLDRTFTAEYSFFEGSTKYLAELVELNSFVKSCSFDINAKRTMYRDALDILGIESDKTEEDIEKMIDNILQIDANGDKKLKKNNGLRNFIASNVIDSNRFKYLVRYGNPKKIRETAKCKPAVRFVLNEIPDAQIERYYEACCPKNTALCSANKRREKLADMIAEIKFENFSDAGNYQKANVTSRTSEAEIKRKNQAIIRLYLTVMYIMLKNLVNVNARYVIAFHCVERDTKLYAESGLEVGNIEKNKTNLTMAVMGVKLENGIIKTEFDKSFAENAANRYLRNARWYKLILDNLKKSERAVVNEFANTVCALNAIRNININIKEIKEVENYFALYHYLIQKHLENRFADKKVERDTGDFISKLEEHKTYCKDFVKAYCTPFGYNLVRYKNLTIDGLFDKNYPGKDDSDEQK
- Protocol Summary: crRNA (strand 1, pre-loaded); Mg2+; 40 mM Tris-HCl pH 7.5, 150 mM NaCl, 6 mM MgCl2, 1 mM DTT, 0.1% Tween-20, 0.2 mg/ml BSA; 25 C; 10 min per concentration, then washed
- Details: tags: His6-TwinStrep-SUMO cleaved; N-terminal SNAP kept (SNAP-Surface 488); label: 3' end held by stalled T7 RNA polymerase
Recorded measurements of Kd, one per entry
Only the number, expressed in nM, is required.

INSERT INTO assay_data (binder, unit_text, observed) VALUES
  ('target 1 A9U,A18U (mixed) RNA 1: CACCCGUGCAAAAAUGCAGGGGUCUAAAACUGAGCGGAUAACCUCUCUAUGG RNA 2: GGGAAUGGAUCCACAUCUACGAAUUCGUACCAUUGAGAGGUUUUCCGCUCACCGAGAUCGGAAGAGCACACGU', 'nM', 44.9);

Quick note, Kd for target 1 MT 5'PFS AGA 3'PFS UUU (mixed) RNA 1: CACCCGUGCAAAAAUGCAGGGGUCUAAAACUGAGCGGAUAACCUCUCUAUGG RNA 2: GGGAAUGGAUCCACAUCUACGAAUUCAGACCAUAGAGAGGUUAUCCGCUCAUUUAGAUCGGAAGAGCACACGU landed at 27.5
